Molecular target: Hck (UniProt P08631)
Sequence (P08631 whole entry, looked up): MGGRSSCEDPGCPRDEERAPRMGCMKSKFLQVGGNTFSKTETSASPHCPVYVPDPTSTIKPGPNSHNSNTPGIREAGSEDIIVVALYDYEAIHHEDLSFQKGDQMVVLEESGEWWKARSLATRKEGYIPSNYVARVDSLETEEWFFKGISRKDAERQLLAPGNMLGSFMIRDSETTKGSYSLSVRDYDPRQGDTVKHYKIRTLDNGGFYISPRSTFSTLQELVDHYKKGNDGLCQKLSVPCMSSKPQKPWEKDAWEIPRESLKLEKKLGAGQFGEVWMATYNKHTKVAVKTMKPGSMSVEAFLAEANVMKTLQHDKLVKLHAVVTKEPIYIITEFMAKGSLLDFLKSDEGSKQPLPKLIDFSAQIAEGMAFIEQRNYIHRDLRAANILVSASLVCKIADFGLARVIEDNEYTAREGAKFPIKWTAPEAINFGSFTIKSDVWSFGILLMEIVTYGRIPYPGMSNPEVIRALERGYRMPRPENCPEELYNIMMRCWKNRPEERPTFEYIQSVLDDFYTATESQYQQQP
Experiment: phosphorylation enrichment, bacterial display (enrichment ratio); higher = better substrate or ligand; peptides without Tyr show the background;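 note: 11-residue human phosphosite peptides and single-mutation variants displayed on the E. coli surface, counted by deep sequencing, each peptide's frequency after selection divided by its frequency in the unselected input library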;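 note: frequency after pTyr selection over input frequency; kinase dosed for 20-30% of maximal phosphorylation in three min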
Classification field: enter 1 (yes) for phosphorylation enrichment values not below 0.5, 0 (no) for values below it.

Recorded results for 10 sequences are shown here.
biopolymer-sequence: QRALLYEDALF [UNC13D_Y56_YF]
class-name: 1 (yes)
//
biopolymer-sequence: TARREYMHSPS [CPOX_Y429_W427R]
class-name: 0 (no)
//
biopolymer-sequence: AGQEKYSAMRD [HRAS_Y64_E63K]
class-name: 0 (no)
//
biopolymer-sequence: ALPVFYAATIA [SLC20A2_Y187]
class-name: 1 (yes)
//
biopolymer-sequence: FFLGAYDRFLP [SLC22A5_Y486_V481F_YF]
class-name: 1 (yes)
//
biopolymer-sequence: FRDMDYRSFPR [RBM10_Y41_YF]
class-name: 0 (no)
//
biopolymer-sequence: EYKDAYTFAAD [BRDT_Y335_K336T]
class-name: 1 (yes)
//
biopolymer-sequence: CLGNQYVNVMN [SLC3A1_Y461_R456C]
class-name: 0 (no)
//
biopolymer-sequence: QWRTKYEMDAI [MYH7_Y1375_T1377M]
class-name: 1 (yes)
//
biopolymer-sequence: KTGNIYRTEFG [MRPL3_Y265_M261T_YF]
class-name: 0 (no)

Could you tell me if the measured phosphorylation enrichment of SGGLDYGMVGG [TNRC6B_Y1382_M1380L] reaches 0.5 or more?
1 (yes)

Could you tell me if the measured phosphorylation enrichment of RLVTRYIYNRE [HLA-DQB1_Y62_Y58L] reaches 0.5 or more?
0 (no)

Could you tell me if the measured phosphorylation enrichment of SSLMKYQQNVS [EGFEM1P_Y160_P157L] reaches 0.5 or more?
0 (no)

Could you tell me if the measured phosphorylation enrichment of KSSDVYVSFDC [SORL1_Y136_Y141C_YF] reaches 0.5 or more?
1 (yes)

Could you tell me if the measured phosphorylation enrichment of ALEQKYWALGQ [MAP1A_Y1555] reaches 0.5 or more?
1 (yes)

Could you tell me if the measured phosphorylation enrichment of IIRFNYLLDVL [FGFR4_Y237_S232I_YF] reaches 0.5 or more?
1 (yes)

Could you tell me if the measured phosphorylation enrichment of LIYTNYEVGKD [GSTP1_Y112_A114V] reaches 0.5 or more?
1 (yes)

Could you tell me if the measured phosphorylation enrichment of HYPDVYAREQL [ALX3_Y181] reaches 0.5 or more?
1 (yes)

Could you tell me if the measured phosphorylation enrichment of GPGGDYAAMGA [ERBB3_Y1276] reaches 0.5 or more?
1 (yes)

Could you tell me if the measured phosphorylation enrichment of RMDGKYACSYT [FLNB_Y704_T703K] reaches 0.5 or more?
1 (yes)

Could you tell me if the measured phosphorylation enrichment of AVISVYDLVAF [PSEN1_Y256_V261F] reaches 0.5 or more?
1 (yes)

----------
Test system: c-Src
Test: phosphorylation enrichment, bacterial display (enrichment ratio); higher = better substrate or ligand; peptides without Tyr show the background
Classification field: enter t for phosphorylation enrichment values not below 0.6, f for values below it.

biopolymer-sequence: GFQPDYGQPAG [SYP_Y278_YF]
class-name: f

biopolymer-sequence: LNTFHYAGVSA [POLR2A_Y1109]
class-name: f

biopolymer-sequence: YAFQLYDLDPD [CHP2_Y123_R127P]
class-name: t

biopolymer-sequence: FADIAYNYRHR [PAH_Y166_G171R]
class-name: f

Could you tell me if the measured phosphorylation enrichment of KACNPYKPPGP reaches 0.6 or more?
t

Could you tell me if the measured phosphorylation enrichment of TRTEAYAVSSF reaches 0.6 or more?
f
